Origin of measurements: patent EP1369415A1

readout.name: IC50 (µM)
Reply with just the number (in µM).

Field IC50 (system: COX-1 (Homo sapiens)) for entry NS(=O)(=O)c1ccc(-n2cccc2-c2ccc(F)cc2)cc1 [Example 9] = 10.4
